Tested on: EKVX NSCLC
Assay: NCI tumour cell line growth inhibition, 48 h
I'd be grateful if you could share measured TGI for these entries.

What the record says about C[C@]12CCC(=O)C=C1CC[C@@H]1C2CC[C@]2(C)Nc3c(cnn3-c3ccccc3)CC12 (stereo partly drawn) : TGI is > 100 µM

CNC(=O)c1cccc2cc(Oc3ccnc4cc(OCC5(N)CC5)c(OC)cc34)ccc12 yielded TGI of 34.5 µM

For CC(C)C1=CC23CCC4C(C)(C(=O)O)CCCC4(C)C2CC1C1C(=O)N(c2ccccc2N2C(=O)C4C5CC6C7(C)CCCC(C)(C(=O)O)C7CCC6(C=C5C(C)C)C4C2=O)C(=O)C13 (stereo not drawn) the molecule record lists TGI as 17.9 µM

Looking up O=C1C(N2CC2)=C(N2CC2)C(=O)C(N2CC2)=C1N1CC1 , I see its TGI listed as 6.88 µM

// CC(=O)O[C@H]1[C@@H]2OC(=O)[C@@](O)(CC3CCCO3)[C@@H]2CC(=O)[C@](C)(O)CC/C=C(\C)CCC[C@@H]1C (stereo partly drawn) : TGI value = > 100 µM

Sample Cc1nn(C(=O)c2ccc(Cl)cc2)c2c1C(c1ccccc1[N+](=O)[O-])SC(N)=N2 (stereo not drawn) ; TGI observed: > 10 µM

Quick note, TGI for N.N.N.N.N.[Cl-].[Co+3].c1ccc(-c2nn[n-]n2)cc1 landed at > 100 µM

Short answer for Cn1c2ccc3cc2c(=S)c2cc(ccc21)OCCOCCOCCOCCOCCO3 : TGI was > 10 µM

---

System: TK-10 renal
Assay: NCI tumour cell line growth inhibition, 48 h
Measured property: TGI (µM)
The reply should be a number in µM, with the unit left off.

The molecule listed as COc1ccc(-c2nc(/C=N/Nc3cc(C)nc4ccc(Cl)cc34)c(C)o2)cc1 shows TGI equal to 3.3

Value of measured TGI for the entry C(=N\NC1=NCCN1)/c1ccc(-c2cn3cc(/C=N/NC4=NCCN4)ccc3n2)cc1 : 56.1

// C=C1/C(=C\C=C2/CCC[C@]3(C)[C@@H]([C@H](C)CCCC(C)(C)O)CC[C@@H]23)C[C@@H](OC(=O)CBr)C[C@@H]1O : TGI value = 21.6

CNc1ccc2c(c1)[C@@]1(C)c3ccccc3[C@@H](C2)N1C yielded TGI of 86.2

---

Test system: A549 NSCLC
Experiment: NCI tumour cell line growth inhibition, 48 h
Label Condition met for high-side TGI (at or above 20 µM) and Condition not met for low-side TGI (below it).

query: Could you please find out whether CN(C)CCN(C)c1ccc2c(=O)n(CCN(C)C)c(=O)n3c4ccccc4c(=O)c1c23 has TGI that meets 20 µM or exceeds it?
result: Condition met

query: Given the entry CCSc1n/c(=C\c2ccco2)c2nncn12 , answer whether its TGI meets or surpasses 20 µM.
result: Condition met

query: Hello, I need to know if Clc1cc2c(cc1Cl)CC(NCCN1CCCC1)CC2 (stereo not given) has measured TGI not below 20 µM. Thanks!
result: Condition met

query: Determine whether this compound has TGI no lower than 20 µM: Cc1cn(C2CC(O)C(COC(=O)NCCC(F)(F)C(F)(F)C(F)(F)C(F)(F)F)O2)c(=O)[nH]c1=O (stereo not given)
result: Condition met

query: Check if TGI >= 20 µM (inclusive). Item: NCCCCc1cc(O)c2c(c1O)C(=O)c1ccccc1C2=O
result: Condition not met

query: Is it the case that CC(C)(C)c1cc(C2=NNC(c3ccccc3)C2)cc(C(C)(C)C)c1O (stereo not given) has TGI reaching or exceeding 20 µM?
result: Condition met

query: Could you tell me if the measured TGI of Cc1ccc(C(CC(=O)c2ccccc2)C2C(=O)NC(=O)NC2=O)cc1 (stereo not given) reaches 20 µM or more?
result: Condition met

query: Does TGI meet or surpass 20 µM for O=c1oc(Cl)c(Cl)c2ccccc12 ?
result: Condition met

query: Is reported TGI greater than or equal to 20 µM here: Cc1ccc(NC2=CC(=O)C(NO)c3ccccc32)cc1 (stereo not given)
result: Condition not met

query: Decide: is the reported value of TGI for CCOC1=C2C(=O)OC(=O)C2C2CCCCC2=C1 (stereo not given) equal to or greater than 20 µM?
result: Condition met

query: Quick check, TGI >= 20 µM? N#CC(=C1CCN(CCCC(=O)c2ccc(F)cc2)CC1)c1ccccc1
result: Condition met

query: Please tell me: is the compound C=CCC(N(C)C(=O)[C@H](Cc1ccccc1)NC(=O)OCc1ccccc1)P(=O)(Oc1ccccc1)Oc1ccccc1 (stereo not given in full) at or over 20 µM in terms of TGI?
result: Condition met

query: Reported TGI reaches at least 20 µM for COc1ccc2c(=O)cc(-c3ccncc3)oc2c1OC ?
result: Condition met

query: Could you verify whether the entry CC(=O)OC[C@]12CC[C@@H](C(=O)CBr)[C@@H]1[C@H]1CC[C@@H]3[C@@]4(C)CCCNC(C)(C)[C@@H]4CC[C@@]3(C)[C@]1(C)CC2 shows TGI of no less than 20 µM?
result: Condition met

query: // inclusive: TGI at least 20 µM? input: COc1ccc2c3c1O[C@H]1C(OC)C=CC4C(C2)N(Cc2cccs2)CCC341 (stereo not given in full)
result: Condition met

query: Check the entry C(=N\NC1=NCCN1)/c1ccc(-c2cn3cc(/C=N/NC4=NCCN4)ccc3n2)cc1 : does TGI equal or exceed 20 µM?
result: Condition met

query: TGI >= 20 µM for CCOP(=O)(OCC)C(C)(CC)N/C(=N/C(NC(C)=O)(C(F)(F)F)C(F)(F)F)NC1=NC(C(F)(F)F)(C(F)(F)F)N=C(C(F)(F)F)O1 (stereo not given) ?
result: Condition met

query: Item COc1cccc(-c2nn(-c3ccccc3)cc2-c2ccnc(NCCCNC(=O)Nc3ccc(Cl)c(Cl)c3)c2)c1 with TGI of 20 µM or above?
result: Condition not met

query: Check if TGI >= 20 µM (inclusive). Item: COc1cc(OC)nc(-n2c(N)c(C#N)c3ccc([N+](=O)[O-])cc3c2=O)n1
result: Condition met

query: Is reported TGI greater than or equal to 20 µM here: C1=CC=C2NCCCCCCCNC3=CC=CC=CC3=NCCCCCCCN=C2C=C1
result: Condition met
